Examples of molecules with documented Percent Effect follow.
# testedTarget: Sialic acid-binding Ig-like lectin 9 (Homo sapiens) (UniProt Q9Y336)
# Sequence (Q9Y336 whole entry): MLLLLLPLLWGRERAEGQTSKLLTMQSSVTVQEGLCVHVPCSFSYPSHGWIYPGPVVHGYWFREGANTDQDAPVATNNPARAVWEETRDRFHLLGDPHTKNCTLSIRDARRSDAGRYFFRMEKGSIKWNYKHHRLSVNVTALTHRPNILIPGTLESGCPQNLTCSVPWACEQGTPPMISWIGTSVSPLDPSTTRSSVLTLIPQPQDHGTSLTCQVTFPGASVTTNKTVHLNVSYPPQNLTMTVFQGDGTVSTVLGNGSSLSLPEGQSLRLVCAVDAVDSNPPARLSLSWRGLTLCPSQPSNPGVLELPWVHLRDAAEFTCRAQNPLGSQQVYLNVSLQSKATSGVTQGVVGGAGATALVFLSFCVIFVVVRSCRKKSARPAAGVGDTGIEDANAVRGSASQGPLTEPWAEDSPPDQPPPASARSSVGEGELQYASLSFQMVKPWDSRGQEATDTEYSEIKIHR
# measurementDescription: Hs-Siglec9 ALPHAscreen SOP 20170721
# Design: scale not given: direction of the effect not stated beside the values
# conditionLabel: 10 µM
// return numeric value only (unit: %, not printed)

{"molecule": "CC(C)C(=O)N1CCN(C(=O)CCc2nnc(-c3ccccc3)o2)CC1", "unitOfMeasure": "%", "Percent Effect": 0.624}
{"molecule": "CC(=O)NCCc1ccc(S(=O)(=O)N(CC(C)C)C(C)C)s1", "unitOfMeasure": "%", "Percent Effect": 4.43}
{"molecule": "Cc1nonc1C(=O)N1CCCC(c2ncncc2-c2ccncc2)C1 (centres undefined)", "unitOfMeasure": "%", "Percent Effect": 2.77}
{"molecule": "Cc1nccn1C1CCCN(C(=O)c2ccc3c(c2)nnn3C)C1 (centres undefined)", "unitOfMeasure": "%", "Percent Effect": 0.191}
{"molecule": "NC(=O)C1CCN(Cn2nc(-c3ccc(F)cc3)oc2=O)CC1", "unitOfMeasure": "%", "Percent Effect": 0.452}
{"molecule": "Cn1ccnc1CN1CCC2(CC1)CC(Oc1cccnc1)C2", "unitOfMeasure": "%", "Percent Effect": 10.2}

Note: attention shifts to another entry.
Query: Please give the measured Percent Effect for this molecule: COCCCN(CCOC)C(=O)Nc1ccccc1Br
Result: -4.8

====

Examples of compounds with documented Percent Effect follow.
# testedTarget: Protein translocase subunit SecA (Escherichia coli (strain K12)) (UniProt P10408)
# Sequence (P10408 whole entry): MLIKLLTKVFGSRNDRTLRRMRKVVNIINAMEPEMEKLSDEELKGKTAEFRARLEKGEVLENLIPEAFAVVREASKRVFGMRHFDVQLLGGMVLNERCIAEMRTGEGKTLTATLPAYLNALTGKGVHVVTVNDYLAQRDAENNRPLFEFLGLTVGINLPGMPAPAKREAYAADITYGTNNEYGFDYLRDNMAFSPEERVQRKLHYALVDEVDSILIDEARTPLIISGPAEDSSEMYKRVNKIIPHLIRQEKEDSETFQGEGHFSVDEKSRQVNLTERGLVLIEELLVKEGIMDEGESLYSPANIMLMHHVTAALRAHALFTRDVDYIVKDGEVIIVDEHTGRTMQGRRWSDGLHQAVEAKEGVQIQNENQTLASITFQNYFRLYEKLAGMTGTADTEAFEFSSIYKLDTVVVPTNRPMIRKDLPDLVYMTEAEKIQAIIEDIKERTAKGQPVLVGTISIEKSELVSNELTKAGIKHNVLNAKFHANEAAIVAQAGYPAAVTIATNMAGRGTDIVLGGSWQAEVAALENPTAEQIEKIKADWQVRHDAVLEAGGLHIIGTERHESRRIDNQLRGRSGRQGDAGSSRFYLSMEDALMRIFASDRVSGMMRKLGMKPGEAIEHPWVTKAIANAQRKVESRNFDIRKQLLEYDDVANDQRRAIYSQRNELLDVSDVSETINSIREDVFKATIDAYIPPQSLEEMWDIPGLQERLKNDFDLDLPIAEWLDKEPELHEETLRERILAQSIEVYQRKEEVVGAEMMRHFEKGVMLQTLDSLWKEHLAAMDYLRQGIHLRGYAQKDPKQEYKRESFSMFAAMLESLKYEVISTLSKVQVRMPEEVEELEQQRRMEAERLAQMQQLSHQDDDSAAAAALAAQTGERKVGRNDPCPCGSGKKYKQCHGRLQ
# measurementDescription: Assay to Identify E. coli SecA ATPase Inhibitors
# Assay type: functional
# Parameters: scale not given: direction of the effect not stated beside the values
# conditionLabel: 30 µM
Entries with a potency or affinity are not part of this list.
// return numeric value only (unit: %, not printed)

{"compound": "COc1ccc(OC)c(C2C3=C(COC3=O)Nc3[nH]nc(C)c32)c1 (stereo not drawn)", "unitOfMeasure": "%", "resultValue": -1.85}
{"compound": "O=C(NC[C@@H]1CCCN1)c1cc(COc2cccc(C(F)(F)F)c2)[nH]n1", "unitOfMeasure": "%", "resultValue": -1.63}
{"compound": "CC1(C(=O)N2CCOCC2)CN(Cc2ccccc2F)CCO1 (stereo not drawn)", "unitOfMeasure": "%", "resultValue": -2.69}
{"compound": "COc1cccc(CCNC(=O)CN2CCCC2c2noc(C)n2)c1 (stereo not drawn)", "unitOfMeasure": "%", "resultValue": -2.79}
{"compound": "CC(C)c1nccn1C1CCCN(C(=O)c2ccc3[nH]nnc3c2)C1 (stereo not drawn)", "unitOfMeasure": "%", "resultValue": -8.55}
{"compound": "Cc1cc(N(C)Cc2cc(C)on2)n2nc(C)c(C)c2n1", "unitOfMeasure": "%", "resultValue": 1.74}
{"compound": "Cc1nnc(C(C)N2CCN(Cc3ccc(C#N)cc3)CC2)o1 (stereo not drawn)", "unitOfMeasure": "%", "resultValue": -3.48}
{"compound": "Cc1nc(C2CCCN(C(=O)c3cnn(C(C)(C)C)c3)C2)no1 (stereo not drawn)", "unitOfMeasure": "%", "resultValue": -11.7}

Query: Form field: Percent Effect recorded for COCC1CC2(CCN(C(=O)c3cccc(C)c3)CC2)CO1 (stereo not drawn) with Protein translocase subunit SecA (Escherichia coli (strain K12)) (UniProt P10408) (enter value)
Result: -0.162

Query: Form field: Percent Effect recorded for Cc1cccc(OCCNC(=O)CN2CCCC2Cn2cccn2)c1 (stereo not drawn) with Protein translocase subunit SecA (Escherichia coli (strain K12)) (UniProt P10408) (enter value)
Result: -2.54

Query: Form field: Percent Effect recorded for COCC1CC2(CCN(C(=O)c3cccn3C)CC2)CN1C(C)C (stereo not drawn) with Protein translocase subunit SecA (Escherichia coli (strain K12)) (UniProt P10408) (enter value)
Result: -2.49

Query: Form field: Percent Effect recorded for CCc1nc(CN2CCOC(Cn3nc(C)nc3C)C2)no1 (stereo not drawn) with Protein translocase subunit SecA (Escherichia coli (strain K12)) (UniProt P10408) (enter value)
Result: -1.49

Query: Form field: Percent Effect recorded for Cn1nc(CNC(=O)NCc2ccc(Cl)cc2)c2c1CCOC2 with Protein translocase subunit SecA (Escherichia coli (strain K12)) (UniProt P10408) (enter value)
Result: -4.99

Query: Form field: Percent Effect recorded for N#Cc1ccc(OCCCN2CCc3cncnc3C2)cc1 with Protein translocase subunit SecA (Escherichia coli (strain K12)) (UniProt P10408) (enter value)
Result: -5.04

Query: Form field: Percent Effect recorded for CCOc1ccccc1-c1noc(CN2CC(n3cccn3)C2)n1 with Protein translocase subunit SecA (Escherichia coli (strain K12)) (UniProt P10408) (enter value)
Result: -1.57

Query: Form field: Percent Effect recorded for O=C1CN(Cc2nnc(-c3ccc(Br)o3)o2)CCN1 with Protein translocase subunit SecA (Escherichia coli (strain K12)) (UniProt P10408) (enter value)
Result: -0.248

====

# testedTarget: Chromo domain-containing protein 1 (Saccharomyces cerevisiae (strain ATCC 204508 / S288c) (Baker's yeast))
# measurementDescription: ScCHD-1 Enzyme Inhibition Assay; further: in the data most compounds retested in dose-response had high values
# Assay type: functional
# Set-up: scale not given: direction of the effect not stated beside the values
# conditionLabel: 30 µM
Examples of compounds with documented Percent Effect follow.
// return numeric value only (unit: %, not printed)

Query: Please give the measured Percent Effect for this compound: O=C(CN1CCCC(O)C1)NC(=O)NCc1cccs1 (centres undefined)
Result: -1.85

Query: Please give the measured Percent Effect for this compound: CCOC(=O)c1sc(NC(=O)CN(C)S(C)(=O)=O)c(C#N)c1C
Result: -8.72

Query: Please give the measured Percent Effect for this compound: CCc1ncc2c(n1)CN(CC(=O)NCCOc1ccccc1)CC2
Result: 1.38

Query: Please give the measured Percent Effect for this compound: CCOc1ccccc1OC1CCN(C(=O)c2cc[nH]n2)CC1
Result: -7.55

Query: Please give the measured Percent Effect for this compound: CSCCCN1CCCC1c1noc(C)n1 (centres undefined)
Result: -9.94

====

Examples of molecules with documented Percent Effect follow.
# Species: Homo sapiens
# measurementDescription: To identify inhibition of the IFN signalling (Jak-Stat) pathway via expression of an eGFP reporter gene under the control of an IFN-stimulated response element (ISRE) containing MxA promoter.
# Format: functional
# Design: scale not given: direction of the effect not stated beside the values
# conditionLabel: 30 µM
// return numeric value only (unit: %, not printed)

For orientation, consider the following solved cases.
{"molecule": "CO[C@H]1CN(C(=O)c2ccccn2)[C@@H]2CCCO[C@H]12", "resultValue": 0.992}
{"molecule": "CC(C)CNC(=O)[C@H]1CCS(=O)(=O)[C@@H]2CN(Cc3ccc(Cl)cc3)C[C@H]12", "resultValue": -6.94}

Query: Please give the measured Percent Effect for this molecule: NC(=O)c1cc(C2CCCN(C(=O)CCc3cscn3)C2)n[nH]1 (centres undefined)
Result: 8.48

Query: Please give the measured Percent Effect for this molecule: Cc1cc(C)n(C2CN(CC(=O)N3CCOCC3)C2)n1
Result: -2

Query: Please give the measured Percent Effect for this molecule: CCOC(=O)c1sc(NC(=O)CN(C)S(C)(=O)=O)c(C#N)c1C
Result: 21.1

Query: Please give the measured Percent Effect for this molecule: CN1CCOC(CNCc2nc(-c3ccccc3)cs2)C1 (centres undefined)
Result: -25.8

Query: Please give the measured Percent Effect for this molecule: Cn1ncc2c(NCCC34CCCN3CCC4)nc(C3CCCC3)nc21
Result: -18.5

Query: Please give the measured Percent Effect for this molecule: O=C(NCCN1CCC(c2cccs2)CC1)c1ccccc1C(F)(F)F
Result: 3.57

Query: Please give the measured Percent Effect for this molecule: Cc1cc(C)n(CC2CCCN2C(=O)Cc2c(C)noc2C)n1 (centres undefined)
Result: 15.8

Query: Please give the measured Percent Effect for this molecule: Cc1csc(N2CCN(C(=O)Cc3ccc(C)s3)CC2)n1
Result: 15.8

Query: Please give the measured Percent Effect for this molecule: O=C(Nc1ccccc1OC(F)F)C1=NN(c2ccccc2)C(=O)CN1
Result: 8.86

Query: Please give the measured Percent Effect for this molecule: O=C(c1ccnnc1)N1C[C@@H](OCC2CCCC2)[C@H]2OCCC[C@H]21
Result: -12.9

Query: Please give the measured Percent Effect for this molecule: CCOC(=O)NC(C(=O)NCc1ccc(N2CCCCC2)nc1)C(C)C (centres undefined)
Result: 28.9

Query: Please give the measured Percent Effect for this molecule: CCN1CCCC(CNC(=O)C2(c3cccc(Cl)c3)CC2)C1 (centres undefined)
Result: 8.9

Query: Please give the measured Percent Effect for this molecule: O=C(Nc1cccc(CN2CCOC2=O)c1)N1CCSCC1
Result: -2.05

Query: Please give the measured Percent Effect for this molecule: Cc1cc(C(=O)N2CC[C@H](OCC3CC3)[C@@H]2Cc2cccnc2)no1
Result: -3.71

Query: Please give the measured Percent Effect for this molecule: COCc1nc(C(=O)N2CCCC2c2noc(C(C)C)n2)cs1 (centres undefined)
Result: 3.65

Query: Please give the measured Percent Effect for this molecule: CCCNC(=O)c1cnc(N(C)C)nc1COC
Result: 13.2

Query: Please give the measured Percent Effect for this molecule: Cc1ccc(CN2CCc3ncnc(C4CCOC4)c3CC2)s1 (centres undefined)
Result: 18.1

Query: Please give the measured Percent Effect for this molecule: Cn1ncc2c(=O)[nH]c(CN3CCCC3Cc3ccccc3)nc21 (centres undefined)
Result: 9.4

Query: Please give the measured Percent Effect for this molecule: CSc1nccn1-c1cccc(C(=O)NCC2CC2)c1
Result: 2.37
